src = ChEMBL document CHEMBL6103639

assay: Metabolic stability in human liver microsomes assessed as parent compound remaining at 0.1 uM incubated for 60 mins by LC/MS-MS analysis; type: ADME, Microsome; settings: read-out: Stability
EXPERIMENTAL_READOUT: remaining at 1 h, 0.1 µM (%)
// return numeric value only (unit: %, not printed)

Worked examples, 3 compounds total:
Oc1ccc2c3c(cn2-c2ccc(Br)cc2)CCN(CC2CCC2)Cc13
44.1
CN1CN(CC2CCC2)Cc2c(O)ccc3oc(-c4ccc(O)cc4)c(c23)C1=O
8.2
CN1CN(C2CCCC2)Cc2c(O)ccc3oc(-c4ccc(O)cc4)c(c23)C1=O
23.3

Okay, next one:
Exam item: Given the compound "C[C@]12CC[C@H]3[C@@H](CCC4=CC(=O)CC[C@@]43C)[C@@H]1CC[C@@H]2O" , write its reported remaining at 1 h, 0.1 µM.
Marked response: 4.1
